# TESTED_TARGET: panel of more than 300 wild-type and mutant kinases (313 kinase panel) (Homo sapiens)
# Sequence (P00540 1-346): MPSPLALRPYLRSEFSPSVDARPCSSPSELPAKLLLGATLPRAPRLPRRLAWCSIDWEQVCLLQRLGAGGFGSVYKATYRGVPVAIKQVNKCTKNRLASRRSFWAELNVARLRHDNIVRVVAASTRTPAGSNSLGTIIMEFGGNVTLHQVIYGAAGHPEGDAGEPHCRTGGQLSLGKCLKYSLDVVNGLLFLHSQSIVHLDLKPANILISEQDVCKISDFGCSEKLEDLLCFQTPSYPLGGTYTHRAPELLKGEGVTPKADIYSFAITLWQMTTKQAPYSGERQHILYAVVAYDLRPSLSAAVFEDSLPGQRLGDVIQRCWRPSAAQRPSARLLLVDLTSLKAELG
# TEST_NAME: Kinase profiling in a biochemical assay panel (mobility shift assays and ELISA), %-inhibition at 1 μM; selectivity entropy
# MEASUREMENT_CONDITIONS: kinase MOS; 1 μM
Each entry below lists one item and its recorded %-inhibition of MOS value.
READOUT_NAME: %-inhibition of MOS (%)

> print(dat)
                                   compound                             tested.target         readout.name  experimental.value
1          O=S(=O)(c1cccc2cnccc12)N1CCCNCC1  panel of more than 300 wild-type and mutant kinases (313 kinase panel) (Homo sapiens)  %-inhibition of MOS                 -24
2  COc1cc2nccc(Oc3ccc(NC(=O)C4(C(=O)Nc5ccc(F)cc5)CC4)cc3)c2cc1OC [cabozantinib]  panel of more than 300 wild-type and mutant kinases (313 kinase panel) (Homo sapiens)  %-inhibition of MOS                  42
3  CC(C)(C)c1nc(-c2cccc(NS(=O)(=O)c3c(F)cccc3F)c2F)c(-c2ccnc(N)n2)s1  panel of more than 300 wild-type and mutant kinases (313 kinase panel) (Homo sapiens)  %-inhibition of MOS                 -12
4  Cc1cn(-c2cc(NC(=O)c3ccc(C)c(Nc4nccc(-c5cccnc5)n4)c3)cc(C(F)(F)F)c2)cn1  panel of more than 300 wild-type and mutant kinases (313 kinase panel) (Homo sapiens)  %-inhibition of MOS               -3.64
5  Cc1ccc(C(=O)Nc2ccc(CN3CCN(C)CC3)c(C(F)(F)F)c2)cc1C#Cc1cnc2cccnn12  panel of more than 300 wild-type and mutant kinases (313 kinase panel) (Homo sapiens)  %-inhibition of MOS                1.59
